Test system: Oryza sativa
protocol summary: Toxicity in two leaf stage of Oryza sativa var. Nihonbare (rice) assessed as dose required to selectivity to Oryza sativa
Format: organism-based
measurement context: in vivo
assay readout: MED (g/acre)
Reply with just the number (in g/acre).

Exam item: Tell me the measured MED of "COCCOCc1ccsc1S(=O)(=O)NC(=O)Nc1nc(OC)cc(OC)n1" , please.
Marked response: 0.156

Exam item: # iterate: "COc1cc(OC)nc(NC(=O)NS(=O)(=O)c2ccsc2COCCF)n1"
Marked response: 0.313

Exam item: Now this one: "COc1cc(Cl)nc(NC(=O)NS(=O)(=O)c2sccc2COCCF)n1"
Marked response: 0.625

Exam item: Now give it for "C=CCOCc1ccsc1S(=O)(=O)NC(=O)Nc1nc(OC)cc(OC)n1" too.
Marked response: 0.313

Exam item: Now consider "COc1nc(C)nc(NC(=O)NS(=O)(=O)c2sccc2COCCF)n1" and answer again.
Marked response: 0.0781

Exam item: What do you have for "COc1cc(OC)nc(NC(=O)NS(=O)(=O)c2sccc2COCC(Cl)(Cl)Cl)n1" ?
Marked response: 1.25

Exam item: Then this compound: "COc1nc(NC(=O)NS(=O)(=O)c2sccc2COCCF)nc(OC)n1"
Marked response: 0.313

Exam item: How about "COc1nc(NC(=O)NS(=O)(=O)c2ccoc2COCCF)nc(OC)n1" ?
Marked response: 0.313

Exam item: // same read-out, input: "COc1cc(OCC(F)(F)F)nc(NC(=O)NS(=O)(=O)c2sccc2COCCF)n1"
Marked response: 5

Exam item: "COc1cc(OC)nc(NC(=O)NS(=O)(=O)c2sccc2COCCF)n1" , same question.
Marked response: 0.0781

Exam item: Another compound to look at: "COc1cc(OC)nc(NC(=O)NS(=O)(=O)c2cscc2COCCF)n1"
Marked response: 0.625

Exam item: What do we get for "COc1cc(OC)nc(NC(=O)NS(=O)(=O)c2sccc2Cn2cccn2)n1" ?
Marked response: 0.625

Exam item: Same thing, different compound: "COc1cc(OC)nc(NC(=O)NS(=O)(=O)c2sccc2COCC(F)(F)C(F)(F)F)n1"
Marked response: 0.625

Exam item: Likewise for "COc1cc(OC)nc(NC(=O)NS(=O)(=O)c2sccc2C[N+](=O)[O-])n1" ?
Marked response: 0.625

Exam item: Next entry: COc1cc(OC)nc(NC(=O)NS(=O)(=O)c2sccc2COC(C)C(F)(F)F)n1 (stereo unspecified)
Marked response: 1.25

Exam item: Okay, and "COc1cc(OC)nc(NC(=O)NS(=O)(=O)c2sccc2COCCCl)n1" ?
Marked response: 0.625

Exam item: Follow-up item: "COc1cc(OC)nc(NC(=O)NS(=O)(=O)c2sccc2CSC#N)n1"
Marked response: 0.313

Exam item: And what about the compound COc1cc(OC)nc(NC(=O)NS(=O)(=O)c2sccc2COCC2CCCO2)n1 (stereo unspecified) ?
Marked response: 0.625

Exam item: "COc1cc(OC)nc(NC(=O)NS(=O)(=O)c2sccc2CSC)n1" , same question.
Marked response: 0.156

Exam item: For "COc1nc(NC(=O)NS(=O)(=O)c2scnc2COCCF)nc(OC)n1" then?
Marked response: 2.5
